# Measured On: human 20S proteasome (hCP)
# Method Description: Peptidase activities of isolated hCP, all three (ChT-L, T-L, C-L)
# Condition Context: T-L and C-L of hCP, no SDS, read-out: IC50 values, range over the three peptidase activities
Endpoint: IC50

> print(dat)
                                   molecule  endpoint           result
1  O=[N+]([O-])[O-].O=[N+]([O-])[O-].[Zn+2] [Zn(II), Zn(NO3)2, reference compound]      IC50  4.16 to 5.99 µM
